- Test Method Notes: MTT cytotoxicity assay (CC50)
- Type: cell-based
- Study Conditions: African green monkey, VERO-E6 cells
Lab note - cut at 300 µM for CC50 at 24 h: Criterion met if strictly below, Criterion not met if not.

is_below(CC50 at 24 h, 300 µM) for CCS(=O)(=O)N1C/C(=C\c2ccccc2)C(=O)C2(C1)C(c1ccccc1)CN(C)C21C(=O)Nc2ccc(Cl)cc21 (centres unmarked) ?
Criterion not met

is_below(CC50 at 24 h, 300 µM) for CCS(=O)(=O)N1C/C(=C\c2ccc(F)cc2)C(=O)C2(C1)C(c1ccc(F)cc1)CN(C)C21C(=O)Nc2ccc(Cl)cc21 (centres unmarked) ?
Criterion met

is_below(CC50 at 24 h, 300 µM) for CN1CC(c2ccc(F)cc2)C2(CN(S(C)(=O)=O)C/C(=C\c3ccc(F)cc3)C2=O)C12C(=O)Nc1ccc(Cl)cc12 (centres unmarked) ?
Criterion met

is_below(CC50 at 24 h, 300 µM) for CN1CC(c2ccccc2)C2(CN(S(C)(=O)=O)C/C(=C\c3ccccc3)C2=O)C12C(=O)Nc1ccc(Cl)cc12 (centres unmarked) ?
Criterion not met

is_below(CC50 at 24 h, 300 µM) for CN1CC(c2ccc(Br)cc2)C2(CN(S(C)(=O)=O)C/C(=C\c3ccc(Br)cc3)C2=O)C12C(=O)Nc1ccccc12 (centres unmarked) ?
Criterion met

is_below(CC50 at 24 h, 300 µM) for COc1ccc(/C=C2\CN(S(C)(=O)=O)CC3(C2=O)C(c2ccc(OC)c(OC)c2)CN(C)C32C(=O)Nc3ccc(Cl)cc32)cc1OC (centres unmarked) ?
Criterion met

is_below(CC50 at 24 h, 300 µM) for CCS(=O)(=O)N1C/C(=C\c2ccc(F)cc2)C(=O)C2(C1)C(c1ccc(F)cc1)CN(C)C21C(=O)Nc2ccccc21 (centres unmarked) ?
Criterion met

is_below(CC50 at 24 h, 300 µM) for COc1ccc(/C=C2\CN(S(C)(=O)=O)CC3(C2=O)C(c2ccc(OC)c(OC)c2)CN(C)C32C(=O)Nc3ccccc32)cc1OC (centres unmarked) ?
Criterion not met

is_below(CC50 at 24 h, 300 µM) for CN1CC(c2ccccc2)C2(CN(S(C)(=O)=O)C/C(=C\c3ccccc3)C2=O)C12C(=O)Nc1ccccc12 (centres unmarked) ?
Criterion not met

is_below(CC50 at 24 h, 300 µM) for CCS(=O)(=O)N1C/C(=C\c2ccc(Cl)cc2)C(=O)C2(C1)C(c1ccc(Cl)cc1)CN(C)C21C(=O)Nc2ccccc21 (centres unmarked) ?
Criterion met

is_below(CC50 at 24 h, 300 µM) for CN1CC(c2ccc(Cl)cc2)C2(CN(S(C)(=O)=O)C/C(=C\c3ccc(Cl)cc3)C2=O)C12C(=O)Nc1ccccc12 (centres unmarked) ?
Criterion met
